The reported measurements were obtained from ChEMBL document CHEMBL4014354.

Tested on: cytochrome c oxidase subunit 2 DNA (mitochondrial DNA) levels
Assay: Mitochondrial toxicity in human HepG2 cells assessed as inhibition of cytochrome c oxidase subunit 2 DNA levels measured on day 14 by RT-PCR method
Type: cell-based
IC50 at 14 days overview
attributeMeasured: IC50 at 14 days

molecule=Nc1ccn([C@H]2CC[C@@H](CO)O2)c(=O)n1 studysystem="cytochrome c oxidase subunit 2 DNA (mitochondrial DNA) levels" testvalue="< 10 µM"
molecule=O=c1ccn([C@@H]2O[C@H](CO)[C@@H](O)[C@]2(F)Cl)c(=O)[nH]1 studysystem="cytochrome c oxidase subunit 2 DNA (mitochondrial DNA) levels" testvalue="> 50 µM"
molecule=CC(C)OC(=O)[C@H](C)N[P@](=O)(OC[C@H]1O[C@@H](n2ccc(=O)[nH]c2=O)[C@](C)(F)[C@@H]1O)Oc1ccccc1 studysystem="cytochrome c oxidase subunit 2 DNA (mitochondrial DNA) levels" testvalue="> 50 µM"
molecule=Nc1ccn([C@@H]2CS[C@H](CO)O2)c(=O)n1 studysystem="cytochrome c oxidase subunit 2 DNA (mitochondrial DNA) levels" testvalue="> 10 µM"
molecule="CC(C)OC(=O)[C@H](C)NP(=O)(OC[C@H]1O[C@@H](n2ccc(=O)[nH]c2=O)[C@@](F)(Cl)[C@@H]1O)Oc1ccccc1 (mixture of isomers)" studysystem="cytochrome c oxidase subunit 2 DNA (mitochondrial DNA) levels" testvalue="> 50 µM"

* * *

Test: Clearance in human intestinal microsomes
Assay type: ADME, Intestine, Microsome
attributeMeasured: microsomal CLint

compound="CC(C)OC(=O)[C@H](C)NP(=O)(OC[C@H]1O[C@@H](n2ccc(=O)[nH]c2=O)[C@@](F)(Cl)[C@@H]1O)Oc1ccccc1 (mixture of isomers)" testvalue="29 µL/min/mg"

* * *

Experiment: Cytotoxicity against African green monkey Vero cells assessed as inhibition of cell proliferation after 3 days by MTT assay
Format: cell-based
Settings: chlorocebus sabaeus
CC50 at 72 h overview
attributeMeasured: CC50 at 72 h (µM)

compound="CC(C)OC(=O)[C@H](C)NP(=O)(OC[C@H]1O[C@@H](n2ccc(N)nc2=O)[C@@](F)(Cl)[C@@H]1O)Oc1ccccc1 (stereo partly specified)" unitlabel=µM operator=> testvalue=100
compound="CC(C)OC(=O)[C@H](C)N[P@](=O)(OC[C@H]1O[C@@H](n2ccc(=O)[nH]c2=O)[C@](C)(F)[C@@H]1O)Oc1ccccc1 [SOFOSBUVIR]" unitlabel=µM operator=> testvalue=100
compound="CC(C)OC(=O)[C@H](C)NP(=O)(OC[C@H]1O[C@@H](n2ccc3c(N)ncnc32)C(F)(Cl)C1O)Oc1ccccc1 (single isomer, unassigned)" unitlabel=µM operator=> testvalue=100
compound="CC(C)OC(=O)[C@H](C)NP(=O)(OC[C@H]1O[C@@H](n2cc(F)c3c(N)ncnc32)C(F)(Cl)C1O)Oc1ccccc1 (single isomer, unassigned)" unitlabel=µM operator== testvalue=60.9
compound=Nc1ccn([C@@H]2O[C@H](CO)[C@@H](O)[C@]2(F)Cl)c(=O)n1 unitlabel=µM operator== testvalue=8.4
compound="CC(C)OC(=O)[C@H](C)NP(=O)(OC[C@H]1O[C@@H](n2cnc3c(N)ncnc32)C(F)(Cl)C1O)Oc1ccccc1 (single isomer, unassigned)" unitlabel=µM operator== testvalue=53.9

* * *

Tested on: HepG2
Test: Mitochondrial toxicity in human HepG2 cells assessed as cytochrome c oxidase subunit 2 DNA levels at 10 uM measured on day 14 by RT-PCR method relative to nuclear beta-actin DNA levels
Conditions: hepg2, 10 µM
Activity overview
attributeMeasured: Activity (%)

molecule="CC(C)OC(=O)[C@H](C)NP(=O)(OC[C@H]1O[C@@H](n2ccc(=O)[nH]c2=O)[C@@](F)(Cl)[C@@H]1O)Oc1ccccc1 (mixture of isomers)" testvalue=130
molecule=Nc1ccn([C@H]2CC[C@@H](CO)O2)c(=O)n1 testvalue=9.5
molecule=CC(C)OC(=O)[C@H](C)N[P@](=O)(OC[C@H]1O[C@@H](n2ccc(=O)[nH]c2=O)[C@](C)(F)[C@@H]1O)Oc1ccccc1 testvalue=176
molecule=O=c1ccn([C@@H]2O[C@H](CO)[C@@H](O)[C@]2(F)Cl)c(=O)[nH]1 testvalue=160
